Please provide measured zone of inhibition at 1000 µg/mL for the entries that follow.
Tested on: Penicillium avellaneum
Protocol details: agar plate paper-disc inhibition zone screening
Assay type: cell-based
Experimental setup: Hamigera avellanea; Dose 1.0 mg/ml; read-out: Inhibition Zone Diameter mm (Dose mg/ml) P. Avellaneum
Please give the number followed by its unit.

Item "CCN(CC)CCn1nc2c3c(c(NCCN4CCNCC4)ccc31)C(=O)c1ccccc1-2" with Penicillium avellaneum - zone of inhibition at 1000 µg/mL?
0 mm

Hi! What's the reported zone of inhibition at 1000 µg/mL for CCN(CC)CC(O)Cn1nc2c3c(c(Cl)ccc31)C(=O)c1ccccc1-2 (centres unmarked) on Penicillium avellaneum?
16 mm

What zone of inhibition at 1000 µg/mL appears in the records for this molecule with Penicillium avellaneum? "CCN(CC)CCCCCCCNc1ccc2c3c(nn2CCN(CC)CC)-c2ccccc2C(=O)c13"
14 mm

Reported zone of inhibition at 1000 µg/mL for Penicillium avellaneum, given "CCN(CC)CCn1nc2c3c(c(NCCN4CCOCC4)ccc31)C(=O)c1ccccc1-2" ?
14 mm

Lab note: need zone of inhibition at 1000 µg/mL for "CCN(CC)CCNc1cccc2c1C(=O)c1cccc3c1c-2nn3CCN(CC)CC" on Penicillium avellaneum, anyone have it?
16 mm

---

Test system: Aerobacter aerogenes
Protocol details: agar plate paper-disc inhibition zone screening
Format: cell-based
Experimental setup: Klebsiella aerogenes; Dose 3.0 mg/ml; read-out: Inhibition Zone Diameter mm (Dose mg/ml) A. Aerogenes
Consider the following compounds; for each one, report its zone of inhibition at 3000 µg/mL.
Give the value in mm but do not write mm after it.

Provide the documented zone of inhibition at 3000 µg/mL with Aerobacter aerogenes as the system for "CN(C)CCCn1nc2c3c(c(NCCNCCO)ccc31)C(=O)c1c(O)ccc(O)c1-2"
16

Look up zone of inhibition at 3000 µg/mL with Aerobacter aerogenes for this compound: "COCCn1nc2c3c(c(NCCN)ccc31)C(=O)c1c(O)ccc(O)c1-2"
14

# returns recorded zone of inhibition at 3000 µg/mL (system: Aerobacter aerogenes) for "CN(C)CCNCCn1nc2c3c(c(Cl)ccc31)C(=O)c1c(O)ccc(O)c1-2"
0

Lab note: need zone of inhibition at 3000 µg/mL with Aerobacter aerogenes for entry "NCCNc1ccc2c3c(nn2CCN)-c2c(O)ccc(O)c2C(=O)c13" , please look it up.
14

Entry "CN(C)CCn1nc2c3c(c(Cl)ccc31)C(=O)c1c(O)ccc(O)c1-2" , system Aerobacter aerogenes: what zone of inhibition at 3000 µg/mL was measured?
15

Request body: readout zone of inhibition at 3000 µg/mL, system Aerobacter aerogenes, query "O=C1c2c(O)ccc(O)c2-c2nn(CCNCCO)c3ccc(NCCNCCO)c1c23" . Return the value.
15

Request body: readout zone of inhibition at 3000 µg/mL, system Aerobacter aerogenes, query "CCN(CC)CCNc1ccc2c3c(nn2CCN(CC)CC)-c2c(O)ccc(O)c2C(=O)c13" . Return the value.
0

Record "CN(C)CCCn1nc2c3c(c(NCCN)ccc31)C(=O)c1c(O)ccc(O)c1-2" : what is its zone of inhibition at 3000 µg/mL with Aerobacter aerogenes?
15

For Aerobacter aerogenes, provide zone of inhibition at 3000 µg/mL of "CN(C)CCCn1nc2c3c(c(NCCCN)ccc31)C(=O)c1c(O)ccc(O)c1-2" please.
14

Please provide the recorded zone of inhibition at 3000 µg/mL for "Cn1nc2c3c(c(NCCN)ccc31)C(=O)c1c(O)ccc(O)c1-2" , tested on Aerobacter aerogenes.
14

Param readout= zone of inhibition at 3000 µg/mL; system= Aerobacter aerogenes; entry= "NCCCCCNc1ccc2c3c(nn2CCNCCO)-c2c(O)ccc(O)c2C(=O)c13" ; returns value.
0

// map "CCCCCCNc1ccc2c3c(nn2CCN(CC)CC)-c2ccccc2C(=O)c13" to recorded zone of inhibition at 3000 µg/mL (system: Aerobacter aerogenes)
0

Form field: zone of inhibition at 3000 µg/mL recorded for "NCCCCNc1ccc2c3c(nn2CCNCCO)-c2c(O)ccc(O)c2C(=O)c13" with Aerobacter aerogenes (enter value)
16

Find zone of inhibition at 3000 µg/mL (Aerobacter aerogenes) for the entry "O=C1c2ccccc2-c2nn(CCO)c3ccc(NCCN4CCOCC4)c1c23"
0

// map CCN(CC)CC(O)Cn1nc2c3c(c(Cl)ccc31)C(=O)c1ccccc1-2 (stereo not shown) to recorded zone of inhibition at 3000 µg/mL (system: Aerobacter aerogenes)
17

Form field: zone of inhibition at 3000 µg/mL recorded for CCN(CC)CCNc1ccc2c3c(nn2CC(O)CN(CC)CC)-c2c(O)ccc(O)c2C(=O)c13 (stereo not shown) with Aerobacter aerogenes (enter value)
14

For the record "CCN(CC)CCCCNc1ccc2c3c(nn2CCO)-c2ccccc2C(=O)c13" , what value of zone of inhibition at 3000 µg/mL is listed for Aerobacter aerogenes?
0

Request - read-out zone of inhibition at 3000 µg/mL | tested on Aerobacter aerogenes | compound "CN(C)CCn1nc2c3c(c(NCCCN)ccc31)C(=O)c1c(O)ccc(O)c1-2"
14

Form field: zone of inhibition at 3000 µg/mL recorded for "CCN(CC)CCn1nc2c3c(c(Cl)ccc31)C(=O)c1c(O)ccc(O)c1-2" with Aerobacter aerogenes (enter value)
0

Entry "CCN(CC)CCCCCCCNc1ccc2c3c(nn2CCN(CC)CC)-c2ccccc2C(=O)c13" , system Aerobacter aerogenes: what zone of inhibition at 3000 µg/mL was measured?
0

Provide the documented zone of inhibition at 3000 µg/mL with Aerobacter aerogenes as the system for "CCN(CC)CCCCCCCNc1ccc2c3c(nn2CCO)-c2ccccc2C(=O)c13"
0

For the record CCN(CC)CC(O)Cn1nc2c3c(c(Cl)ccc31)C(=O)c1c(O)ccc(O)c1-2 (stereo not shown) , what value of zone of inhibition at 3000 µg/mL is listed for Aerobacter aerogenes?
0

Lab note: need zone of inhibition at 3000 µg/mL for "CN(CCO)CCn1nc2c3c(c(Cl)ccc31)C(=O)c1c(O)ccc(O)c1-2" on Aerobacter aerogenes, anyone have it?
0

Give the reported zone of inhibition at 3000 µg/mL for "NCCNc1ccc2c3c(nn2CCNCCO)-c2c(O)ccc(O)c2C(=O)c13" (system: Aerobacter aerogenes).
15

Find the measured zone of inhibition at 3000 µg/mL: item "O=C1c2c(O)ccc(O)c2-c2nn(CCNCCO)c3ccc(NCCN4CCOCC4)c1c23" , target or system Aerobacter aerogenes.
0

# query: zone of inhibition at 3000 µg/mL | item "O=C1c2c(O)ccc(O)c2-c2nn(CCO)c3ccc(NCCNCCO)c1c23" | system: Aerobacter aerogenes
0

// fetch Aerobacter aerogenes zone of inhibition at 3000 µg/mL for "COCCn1nc2c3c(c(NCCNCCO)ccc31)C(=O)c1c(O)ccc(O)c1-2"
14

// map "CCN(CC)CCNc1ccc2c3c(nn2CCO)-c2c(O)ccc(O)c2C(=O)c13" to recorded zone of inhibition at 3000 µg/mL (system: Aerobacter aerogenes)
0
